These measurements were taken from patent US20130089544A1.

Molecular target: human ErbB2, full length, on cells (human, UniProt P04626 23-1255)
Assay: cell-based or functional assay
test.readout: EC50 (ng/ml) n2, inhibition of Heregulin-induced ErbB2 phosphorylation in MCF7 cells (ng/mL)
Return type: number; implicit unit ng/mL.

{"columns": ["binder", "recorded.result"],
 "data": [
  ["monoclonal antibody 1.39 (antibody, V domains shown, Fully human IgG (gamma/kappa) from a XenoMouse XM3B-3 hybridoma; constant regions not tied to it; also called 1.39.1; 1.39.2) VH: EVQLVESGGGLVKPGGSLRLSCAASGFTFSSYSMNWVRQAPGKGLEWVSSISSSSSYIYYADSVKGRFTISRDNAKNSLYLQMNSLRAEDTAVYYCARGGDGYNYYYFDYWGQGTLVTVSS VL: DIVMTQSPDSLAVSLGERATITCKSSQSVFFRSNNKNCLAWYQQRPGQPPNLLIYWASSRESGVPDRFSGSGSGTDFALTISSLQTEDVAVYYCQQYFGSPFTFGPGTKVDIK", 26.3]
]}

With those in mind, consider the next binder.
Item under review: monoclonal antibody 1.14.1 (antibody, V domains shown, Fully human IgG (gamma/kappa) from a XenoMouse XM3B-3 hybridoma; constant regions not tied to it) VH: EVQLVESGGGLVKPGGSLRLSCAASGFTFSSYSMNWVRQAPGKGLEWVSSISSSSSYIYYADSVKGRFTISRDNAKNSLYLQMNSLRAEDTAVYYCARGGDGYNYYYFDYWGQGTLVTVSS VL: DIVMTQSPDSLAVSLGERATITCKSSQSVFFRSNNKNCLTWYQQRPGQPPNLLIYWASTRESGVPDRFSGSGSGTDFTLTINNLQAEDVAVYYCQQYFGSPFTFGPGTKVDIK . Reported EC50 (ng/ml) n2, inhibition of Heregulin-induced ErbB2 phosphorylation in MCF7 cells?
22.9
